system: PC12 cells; assay: Acetylcholinesterase activity assay (AChE release from PC12 cells, Ellman reagent); type: cell-based; conditions: Aβ 5 μM + small peptide 0.5 μM; % AChE release compared to untreated control
Ends that are not written are not given here.
assayReadout: AChE
Could you give the number and then its unit, please?

- HRWSSY [NBP-607]: 97.53%
- VHWKAEFHRWSS [NBP-1214]: 89.28%
- SSYMVHWK [NBP-810]: 96.22%

q: What AChE value was documented for this substance, KAEFHRWSSYMV [NBP-1203] ?
a: 99.63%

q: What AChE value was documented for this substance, HRWSSYMVHWKAE [NBP-1307] ?
a: 94.29%

q: What AChE value was documented for this substance, SYMVHW [NBP-611, SYMVHW] ?
a: 88.60%

q: What AChE value was documented for this substance, SSYMVHW [NBP-710, SSYMVHW] ?
a: 108.85%

q: What AChE value was documented for this substance, KAEFHRWSSYMVH [NBP-1303] ?
a: 96.73%
